- MEASURED TARGET: human ether-à-go-go-related gene (hERG) potassium channel (human, UniProt Q12809)
- Sequence (Q12809 whole entry, looked up): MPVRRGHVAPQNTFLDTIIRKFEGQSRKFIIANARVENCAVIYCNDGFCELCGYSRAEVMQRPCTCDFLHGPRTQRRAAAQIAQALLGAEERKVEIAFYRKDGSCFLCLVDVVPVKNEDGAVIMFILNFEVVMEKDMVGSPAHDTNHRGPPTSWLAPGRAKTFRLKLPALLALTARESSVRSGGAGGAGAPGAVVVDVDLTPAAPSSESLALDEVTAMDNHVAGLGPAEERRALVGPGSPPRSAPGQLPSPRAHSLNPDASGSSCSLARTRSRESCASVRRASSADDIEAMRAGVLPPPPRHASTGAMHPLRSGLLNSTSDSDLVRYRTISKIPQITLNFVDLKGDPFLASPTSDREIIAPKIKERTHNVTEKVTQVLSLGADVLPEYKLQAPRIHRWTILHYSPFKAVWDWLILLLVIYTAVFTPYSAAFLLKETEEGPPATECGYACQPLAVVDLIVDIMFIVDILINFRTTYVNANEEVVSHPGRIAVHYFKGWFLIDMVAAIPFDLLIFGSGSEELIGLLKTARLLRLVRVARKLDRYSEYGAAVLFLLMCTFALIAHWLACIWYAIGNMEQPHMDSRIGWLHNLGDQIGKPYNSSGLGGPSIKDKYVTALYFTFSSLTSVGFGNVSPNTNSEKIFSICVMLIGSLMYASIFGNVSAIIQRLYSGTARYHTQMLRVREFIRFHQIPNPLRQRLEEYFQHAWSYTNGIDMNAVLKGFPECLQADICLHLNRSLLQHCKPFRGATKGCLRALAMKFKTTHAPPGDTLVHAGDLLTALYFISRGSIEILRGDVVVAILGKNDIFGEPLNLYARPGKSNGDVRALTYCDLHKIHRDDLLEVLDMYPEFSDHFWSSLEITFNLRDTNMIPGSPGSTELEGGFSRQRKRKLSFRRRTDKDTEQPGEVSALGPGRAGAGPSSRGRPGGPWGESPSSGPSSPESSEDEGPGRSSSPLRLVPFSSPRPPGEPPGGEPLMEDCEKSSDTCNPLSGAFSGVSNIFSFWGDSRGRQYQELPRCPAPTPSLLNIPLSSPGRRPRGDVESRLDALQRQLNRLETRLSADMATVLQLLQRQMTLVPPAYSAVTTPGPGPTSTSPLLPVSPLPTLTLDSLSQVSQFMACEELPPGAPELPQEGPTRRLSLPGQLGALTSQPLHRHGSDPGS
- PROTOCOL DETAILS: primary screen, population patch clamp on CHO cells stably expressing hERG; higher = less effect of the substance
In all, about 310,000 compounds went through this assay and about 2,200 (0.71%) showed an effect of 50% or more. The effect is printed as a negative number. What follows is part of a selection rich in strong results, with near analogues and random picks from the rest.
I'd appreciate it if you could supply hERG current change (%, negative = inhibition) at 1uM values for the items below.
Put down the number, then write its unit next to it.

Cc1oc(-c2cccc(Cl)c2)nc1CN1CCC(C(=O)NCCCN2CC(C)CC(C)C2)CC1 (centres unmarked)
13.9%
COc1ccc(CCNC(=O)C2CCCN(Cc3nc(-c4ccccc4C)oc3C)C2)cc1OC (centres unmarked)
-2.12%
c1cc2c3c(cccc3c1)C(N1CCOCC1)=N2
-0.83%

Each compound below has a reported value. Please supply its hERG current change (%, negative = inhibition) at 1uM.
1. Cc1oc(-c2cccc(Cl)c2)nc1CN1CCC(C(=O)NCC2CCCO2)CC1 (centres unmarked)
2. CCN1CCN(CCNC(=O)C2CCCN(Cc3nc(-c4cccc(Cl)c4)oc3C)C2)CC1 (centres unmarked)

Resp:
1. -31.8%
2. 3.86%
